Listed next: entries and their corresponding LogP.
Experiment: Log P by HPLC on reversed phase, method [a], acidic range (0.1% formic acid)
Type: physicochemical
Details: LC-UV, 0.1% formic acid in water and acetonitrile

Molecule: Cc1c(NC(=O)c2ccc(Cl)nc2C(F)F)cnn1-c1cccc(Cl)c1 [Example 66]
LogP: 2.88^[a]
--
Molecule: CSc1ccc(-n2ncc(NC(=O)c3cccnc3C(F)F)c2C(F)(F)F)cc1 [Example 246]
LogP: 2.94^[a]
--
Molecule: CCc1c(NC(=O)c2cc(C)cnc2C(F)F)cnn1-c1ccc(C)cc1 [Example 207]
LogP: 2.57^[a]
--
Molecule: O=C(Nc1cnn(-c2ccc(Br)cc2)c1C(F)F)c1cccnc1C(F)F [Example 28]
LogP: 2.80^[a]
--
Molecule: O=C(Nc1cnn(-c2ccc(Cl)cc2)c1-c1cccc(Cl)c1)c1cccnc1C(F)F [Example 56]
LogP: 3.35^[a]
--
Molecule: O=C(Nc1cnn(-c2ccc(Cl)c(Cl)c2)c1Cl)c1cccnc1C(F)F [Example 252]
LogP: 3.06^[a]
--
Molecule: Cc1cnc(C(F)F)c(C(=O)Nc2cnn(-c3ccc(Cl)cc3)c2C)c1 [Example 71]
LogP: 2.49^[a]
--
Molecule: CCC(CC)n1ncc(NC(=O)c2ccc(Cl)nc2C(F)F)c1C [Example 39]
LogP: 2.51^[a]
--
Molecule: Cc1c(NC(=O)c2ccc(Cl)nc2C(F)F)cnn1-c1ccccc1Cl [Example 70]
LogP: 2.56^[a]
--
Molecule: Cc1cnc(C(F)F)c(C(=O)Nc2cnn(-c3cccc(C(F)(F)F)c3)c2C(F)(F)F)c1 [Example 139]
LogP: 3.39^[a]
--
Molecule: CCCOc1c(NC(=O)c2cccnc2C(F)F)cnn1-c1ccc(Cl)cc1 [Example 227]
LogP: 2.95^[a]
--
Molecule: Cc1nn(-c2ccccc2)c(Br)c1NC(=O)c1cccnc1C(F)F [Example 35]
LogP: 2.07^[a]
--
Molecule: O=C(Nc1cnn(-c2ccc(Cl)cc2)c1C(F)F)c1cccnc1C(F)F [Example 23]
LogP: 2.69^[a]
--
Molecule: COCc1c(NC(=O)c2cc(C)cnc2C(F)F)cnn1-c1ccc(Br)cc1 [Example 250]
LogP: 2.80^[a]
--
Molecule: O=C(Nc1cnn(-c2ccc(Cl)cc2)c1SC(F)(F)F)c1cccnc1C(F)F [Example 224]
LogP: 3.25^[a]
--
Molecule: O=C(Nc1cnn(-c2ccc(Cl)cc2)c1C(F)(F)F)c1ccc(Br)nc1C(F)F [Example 145]
LogP: 3.73^[a]
--
Molecule: O=C(Nc1cnn(-c2ccc(Br)cc2)c1SC(F)(F)F)c1cccnc1C(F)F [Example 228]
LogP: 3.43^[a]
--
Molecule: CCc1c(NC(=O)c2cccnc2C(F)F)cnn1-c1ccc(C(F)(F)F)cc1 [Example 118]
LogP: 2.76^[a]
--
Molecule: CC(C)c1c(NC(=O)c2cccnc2C(F)F)cnn1-c1cccc(Cl)c1 [Example 103]
LogP: 2.60^[a]
